Origin of the recorded values: paper PMC10783490

- measurement target: T1, TAM-AT1-AT2 Baz2B R765E (Homo sapiens, UniProt Q9UIF8 721-884, R765E)
- T1 sequence: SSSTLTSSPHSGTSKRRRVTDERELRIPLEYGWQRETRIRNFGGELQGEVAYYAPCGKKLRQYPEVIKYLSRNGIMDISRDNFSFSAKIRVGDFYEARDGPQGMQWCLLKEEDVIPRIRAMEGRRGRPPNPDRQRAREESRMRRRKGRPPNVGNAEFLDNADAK
- assay overview: EMSA; EMSA: 20 mM HEPES pH 7.5, 30 mM KCl, 1 mM EDTA, 10 mM (NH4)2SO4, 1 mM DTT, 4 C, 10 nM probe; MST: same plus 0.1 ug/ml BSA, 5 nM probe, 25 C; GST-AT-hook and bromodomain EMSA as in cited refs
- assay context: protein: recombinant; tags: His6
endpoint: Kd (µM)
Numbers only, in µM.

q: Answer with reported Kd of ATCAGTTCTCCGGGTTGTCAGGTCGACCAGTTGTTCCTTTGAGGT (ssDNA) [45 nt ssDNA FLP015]
a: 0.0931
